test system: Staphylococcus aureus; conditions: Concentration 32 ug.mL-1; ASSAY_TEST Inhibition of Bacterial Growth; detection method Absorption (OD600); MEDIA CAMHB; plate type 384well; NBS; CORNING #3640; time 18 hr
Description: Antibacterial activity against Staphylococcus aureus MRSA ATCC 43300 (CO-ADD:GP_020); MIC in CAMBH media, using NBS plates, by OD(600)
Results with a measured potency or affinity are listed apart.
Assay Readout: Inhibition (%)
The figure you give is taken to be in %; do not add the unit.

For orientation, consider the following solved cases.
Compound	Target Of Assay	Inhibition, %
Fc1ccc(CCOc2cncc3nnc(-c4ccc(C(F)(F)F)nc4)n23)cc1F	Staphylococcus aureus	6.53
COC(COc1cncc2nnc(-c3ccc(C#N)cc3)n12)c1ccc(F)c(F)c1 (centres undefined)	Staphylococcus aureus	-4.85
O.O=C1c2cccc3c(-n4cc(CN5CCCNCCN(Cc6cn(-c7ccc8c9c(cccc79)C(=O)N(CCCO)C8=O)nn6)CCCNCC5)nn4)ccc(c23)C(=O)N1CCCO.[Cl-].[Cl-].[Zn+2]	Staphylococcus aureus	7.81

# context switch: different compound, same Inhibition
Returns the measured Inhibition for the input compound. Input: CN(C)C(COc1cncc2nnc(-c3ccc(C#N)cc3)n12)c1ccc(F)c(F)c1 (centres undefined)
-0.93
